Target: CYP1A2 (Homo sapiens, UniProt P05177)
Sequence (P05177 whole entry): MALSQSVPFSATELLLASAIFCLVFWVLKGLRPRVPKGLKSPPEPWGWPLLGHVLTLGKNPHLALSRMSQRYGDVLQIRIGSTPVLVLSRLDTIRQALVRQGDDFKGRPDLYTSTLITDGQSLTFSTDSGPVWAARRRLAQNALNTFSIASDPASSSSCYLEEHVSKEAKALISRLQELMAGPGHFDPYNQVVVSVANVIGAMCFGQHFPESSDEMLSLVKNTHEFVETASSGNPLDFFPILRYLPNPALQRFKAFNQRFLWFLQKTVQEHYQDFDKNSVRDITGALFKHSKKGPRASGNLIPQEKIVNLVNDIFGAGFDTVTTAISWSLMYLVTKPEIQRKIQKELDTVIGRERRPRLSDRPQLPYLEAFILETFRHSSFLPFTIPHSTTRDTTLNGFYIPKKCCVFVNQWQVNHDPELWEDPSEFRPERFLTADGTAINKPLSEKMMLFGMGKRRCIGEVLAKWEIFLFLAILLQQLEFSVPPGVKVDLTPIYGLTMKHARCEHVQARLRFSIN
Experiment: TCAS incubation with human liver microsomes plus CYP1A2-selective inhibitor
Settings: pH 7.4, probe TCAS (100 µM)
Metric Name: inhibition at 30 min, 6 µM (%)
Number in %, nothing else.

Measured inhibition at 30 min, 6 µM of O=c1cc(-c2ccccc2)oc2c1ccc1ccccc12 : 54.9

* * *

Tested on: CYP2D6 (2D6)
Construct: native enzyme in rat liver microsomes (RLMs)
Experiment: Inhibition of isoform-selective probe metabolism (phenacetin 1A2, tolbutamide 2C9, bupropion 2B6, dextromethorphan 2D6, midazolam 3A) in rat liver microsomes (0.4 mg/mL) with an NADPH-generating system, 0.5-500 uM TCAS, 30 min at 37 °C, LC-MS/MS readout.
Assay type: biochemical
Conditions: SD, n = 3
Metric Name: IC50
Answer with the number, then the unit.

// compound O=S(=O)(O)c1cc2c(O)c(c1)Sc1cc(S(=O)(=O)O)cc(c1O)Sc1cc(S(=O)(=O)O)cc(c1O)Sc1cc(S(=O)(=O)O)cc(c1O)S2 [TCAS, Thiacalix[4]arene tetrasulfonate] , assay CYP2D6 (2D6), IC50 value: 196 µM

* * *

Molecular target: CYP2C9 (Homo sapiens, UniProt P11712)
Sequence (P11712 whole entry): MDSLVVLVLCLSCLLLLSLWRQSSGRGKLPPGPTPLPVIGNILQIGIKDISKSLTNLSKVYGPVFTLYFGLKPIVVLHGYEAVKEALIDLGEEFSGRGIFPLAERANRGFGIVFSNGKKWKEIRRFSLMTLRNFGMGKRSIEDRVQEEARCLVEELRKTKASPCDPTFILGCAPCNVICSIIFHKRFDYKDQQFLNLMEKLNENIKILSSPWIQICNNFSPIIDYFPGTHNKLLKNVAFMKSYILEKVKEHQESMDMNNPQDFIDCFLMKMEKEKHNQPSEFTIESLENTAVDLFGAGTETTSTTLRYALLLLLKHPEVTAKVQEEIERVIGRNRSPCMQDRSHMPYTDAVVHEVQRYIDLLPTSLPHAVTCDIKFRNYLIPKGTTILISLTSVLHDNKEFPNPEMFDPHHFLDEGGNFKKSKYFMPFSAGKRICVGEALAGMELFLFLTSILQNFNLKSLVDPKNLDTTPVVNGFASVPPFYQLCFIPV
Experiment: in vitro
Conditions: microsomes, pH 7.4
Metric Name: inhibition at 30 min, 60 µM (%)
Number only, in %; omit the unit.

Value of measured inhibition at 30 min, 60 µM for the entry Nc1ccc(S(=O)(=O)Nc2ccnn2-c2ccccc2)cc1 : 51.7
